- Tested on: Escherichia coli
- Experimental Details: Inhibition of Escherichia coli MurA using PEP as substrate assessed as inorganic phosphate release at 25 uM preincubated for 10 mins measured after 60 mins […]
Calls of active or inactive are those of the source. No rule for the calls is given here.
Value Kind: inhibition

Take a look at these entries with their results.
>>> df
                  structure_smiles_string  recorded_result
0  CC(=O)n1cc(/C=C2\SC(=O)NC2=O)c2ccccc21         inactive
1      C/C(=C1/SC(=S)NC1=O)c1ccc2ccccc2c1         inactive
2                O=C1NC(=S)N/C1=C\c1cccs1         inactive
3          O=C1NC(=O)/C(=C/c2ccc(Cl)s2)N1              38%
4     O=C1NC(=O)/C(=C/c2c[nH]c3ccccc23)N1         inactive

Exam item: Tell me inhibition reported for O=C1NC(=O)[C@@H](Cc2ccccc2)N1
Marked response: inactive

meta.source: ChEMBL document CHEMBL1955761
